# target_system: pEGFR (Tyr1068) in PC-9 cells (Ex19Del) (Homo sapiens (Human), UniProt P00533, DEL746-750)
# Sequence (P00533 other isoform, or with tags, fused parts or gaps del 746-750): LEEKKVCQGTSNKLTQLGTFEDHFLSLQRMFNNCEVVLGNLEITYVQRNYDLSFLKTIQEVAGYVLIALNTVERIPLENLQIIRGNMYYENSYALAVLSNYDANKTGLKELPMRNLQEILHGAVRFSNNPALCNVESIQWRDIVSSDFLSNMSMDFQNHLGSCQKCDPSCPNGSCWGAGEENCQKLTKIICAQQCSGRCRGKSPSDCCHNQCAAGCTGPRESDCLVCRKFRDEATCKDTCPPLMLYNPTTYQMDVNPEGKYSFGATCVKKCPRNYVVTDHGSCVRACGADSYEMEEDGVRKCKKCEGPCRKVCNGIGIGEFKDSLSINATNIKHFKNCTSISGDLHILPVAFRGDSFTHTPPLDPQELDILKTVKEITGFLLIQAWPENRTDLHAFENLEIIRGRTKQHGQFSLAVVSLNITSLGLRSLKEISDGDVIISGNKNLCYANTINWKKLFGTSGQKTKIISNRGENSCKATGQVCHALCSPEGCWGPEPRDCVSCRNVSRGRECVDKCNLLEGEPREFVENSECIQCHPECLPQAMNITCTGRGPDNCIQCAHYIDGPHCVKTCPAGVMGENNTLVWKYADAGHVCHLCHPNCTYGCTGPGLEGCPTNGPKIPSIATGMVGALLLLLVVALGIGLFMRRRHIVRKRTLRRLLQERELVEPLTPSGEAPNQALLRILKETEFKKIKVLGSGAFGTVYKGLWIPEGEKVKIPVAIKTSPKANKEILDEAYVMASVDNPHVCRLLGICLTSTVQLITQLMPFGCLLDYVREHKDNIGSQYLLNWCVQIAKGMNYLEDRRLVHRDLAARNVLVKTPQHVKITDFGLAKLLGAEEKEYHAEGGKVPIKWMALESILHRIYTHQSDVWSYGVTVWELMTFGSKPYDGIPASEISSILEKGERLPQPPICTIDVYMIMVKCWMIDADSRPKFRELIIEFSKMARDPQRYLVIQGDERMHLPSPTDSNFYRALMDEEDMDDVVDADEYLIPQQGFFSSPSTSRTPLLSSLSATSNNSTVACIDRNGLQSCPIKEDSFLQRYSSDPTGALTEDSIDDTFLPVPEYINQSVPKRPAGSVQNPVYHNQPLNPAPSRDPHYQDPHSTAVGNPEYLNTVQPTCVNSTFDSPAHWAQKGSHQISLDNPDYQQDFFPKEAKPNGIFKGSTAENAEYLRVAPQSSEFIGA
# test_description: PC-9 pEGFR AlphaLISA assay
# Type: cell-based
# condition_label: 4 hours incubation, p-EGFR (Tyr1068) AlphaLISA, read-out: Ext pEGFR_PC-9 Ex19Del IC50
pIC50: −log10 of the molar value.
property_label: pIC50

compound | recorded_measurement
COc1cc2ncnc(-c3cn(C)nc3-c3ccccc3)c2cc1NC(=O)C(C)(C)F [Example 350] | 8.36
COc1cc2ncnc(-c3cn(C)nc3-c3ccccc3F)c2cc1OC(=O)N1CCN(C)C[C@@H]1C [Example 66] | 8.28
COc1cc2ncnc(-c3cn(C)nc3-c3ccccc3)c2cc1N [Preparation 190] | 8.27
COc1cc2ncnc(-c3cn(C)nc3-c3ccccc3)c2nc1NC(=O)c1cnc(C2CC2)s1 [Example 318] | 9.15

(a) COC(=O)Nc1cc2c(-c3cn(C)nc3-c3ccccc3)ncnc2cc1OC [Example 157]
(b) COc1cc2ncnc(-c3cn(C)nc3-c3ccccc3)c2cc1NC(=O)C1(c2cccnc2)CC1 [Example 216]
(c) COc1cc2ncnc(-c3cn(C)nc3-c3ccccc3)c2cc1C(C)(C)O [Example 121]
(d) Cn1cc(-c2ccc3c(-c4cnn(C)c4-c4ccccc4)ncnc3c2)cn1 [Example 497]
Parameters: sort_field (pIC50), sort_dir (desc). In plain terms: list the labels in the order you were asked to.
a, b, c, d

----------
# target_system: EGFR L858R (Homo sapiens (Human), UniProt P00533, L858R)
# Sequence (P00533 25-1210 L858R): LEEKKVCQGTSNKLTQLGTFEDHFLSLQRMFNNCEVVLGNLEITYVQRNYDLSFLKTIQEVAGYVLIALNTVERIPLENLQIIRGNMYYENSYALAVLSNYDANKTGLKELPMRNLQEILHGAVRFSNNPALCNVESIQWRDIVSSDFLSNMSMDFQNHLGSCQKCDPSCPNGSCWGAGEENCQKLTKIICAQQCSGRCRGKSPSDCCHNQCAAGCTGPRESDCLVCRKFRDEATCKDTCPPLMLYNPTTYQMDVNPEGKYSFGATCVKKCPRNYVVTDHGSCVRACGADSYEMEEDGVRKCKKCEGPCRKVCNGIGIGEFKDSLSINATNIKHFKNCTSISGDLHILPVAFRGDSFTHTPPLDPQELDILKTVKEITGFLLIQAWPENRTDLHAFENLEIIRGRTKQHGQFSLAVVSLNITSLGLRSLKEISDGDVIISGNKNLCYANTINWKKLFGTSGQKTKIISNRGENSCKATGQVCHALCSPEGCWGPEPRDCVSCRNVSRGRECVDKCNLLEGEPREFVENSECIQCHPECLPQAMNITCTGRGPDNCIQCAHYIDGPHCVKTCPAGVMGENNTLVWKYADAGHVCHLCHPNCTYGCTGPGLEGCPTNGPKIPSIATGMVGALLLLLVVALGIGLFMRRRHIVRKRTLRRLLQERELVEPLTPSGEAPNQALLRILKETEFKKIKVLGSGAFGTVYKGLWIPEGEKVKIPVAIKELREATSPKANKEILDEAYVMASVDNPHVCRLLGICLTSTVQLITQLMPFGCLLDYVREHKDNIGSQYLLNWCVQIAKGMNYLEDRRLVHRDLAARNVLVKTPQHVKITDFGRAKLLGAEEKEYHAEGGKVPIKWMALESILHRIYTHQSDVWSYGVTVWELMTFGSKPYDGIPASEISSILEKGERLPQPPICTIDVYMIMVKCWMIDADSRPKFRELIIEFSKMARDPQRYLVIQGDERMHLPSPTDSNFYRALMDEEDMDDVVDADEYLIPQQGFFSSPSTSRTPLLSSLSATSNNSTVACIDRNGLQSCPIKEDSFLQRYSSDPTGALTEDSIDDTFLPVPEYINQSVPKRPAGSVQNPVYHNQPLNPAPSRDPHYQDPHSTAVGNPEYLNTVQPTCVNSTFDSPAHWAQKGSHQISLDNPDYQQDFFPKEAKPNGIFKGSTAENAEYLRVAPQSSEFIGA
# test_description: Biochemical EGFR inhibition assay, EGFR L858R
# condition_label: Caliper mobility shift; 1.0 mM ATP or ATP Km; read-out: Enz EGFR_L858R IC50
pIC50: −log10 of the molar value.
property_label: pIC50

compound | recorded_measurement
COc1cc2ncnc(-c3cn(C)nc3-c3ccccc3)c2cc1NC(=O)N1CCN(C)[C@@H]2C[C@@H]21 (stereo in doubt) | 8.49
COc1cc2ncnc(-c3cn(C)nc3-c3ccccc3)c2cc1O[C@H]1CCOC[C@@H]1F | 8.74

(A) COc1cc2ncnc(-c3cn(C)nc3-c3ccccc3F)c2cc1NC(=O)[C@@]12COC[C@@H]1C2 (single isomer, unassigned)
(B) COc1cc2ncnc(-c3cn(C)nc3-c3ccc(F)cc3)c2cc1NC(=O)c1cn(C)nc1C
Returns the identifier with the smallest measured pIC50 among A and B . Please respond with the label that marks your chosen entry.
B
(B: 8.29, A: 8.74)

(I) CCn1cc(-c2ncnc3cc(OC)c(NC(=O)[C@]45COC[C@H]4C5)cc23)c(-c2ccccc2F)n1 (mixture of isomers)
(II) CCC(=O)Nc1cc2c(-c3cnn(C4CCOCC4)c3-c3ccccc3)ncnc2cc1OC
(III) [2H]C([2H])([2H])N1CCN(C(=O)Nc2cc3c(-c4cn(C)nc4-c4ccccc4)ncnc3cc2OC)[C@@H](C)C1
Please rank these compounds by pIC50 in descending order. Order the labels as requested and give them as your answer.
I, III, II

----------
# target_system: pEGFR (Tyr1068) in PC-9 cells (Ex19Del) (Homo sapiens (Human), UniProt P00533, DEL746-750)
# test_description: PC-9 pEGFR AlphaLISA assay
# condition_label: 4 hours incubation, p-EGFR (Tyr1068) AlphaLISA, read-out: Ext pEGFR_PC-9 Ex19Del IC50
property_label: IC50 (nM)

compound | target_system | property_label | recorded_measurement
COc1cc2ncnc(-c3cn(C)nc3-c3ccccc3)c2cc1OC(=O)N1[C@H](C)COC[C@@H]1C | pEGFR (Tyr1068) in PC-9 cells (Ex19Del) (Homo sapiens (Human), UniProt P00533, DEL746-750) | IC50 | 2.5
COc1cc2ncnc(-c3cn(C)nc3-c3ccccc3)c2cc1NC(=O)[C@@H]1CCN(C)C[C@H]1F [Example 284] | pEGFR (Tyr1068) in PC-9 cells (Ex19Del) (Homo sapiens (Human), UniProt P00533, DEL746-750) | IC50 | 18.7
Cc1c(-c2ncnc3cc(-c4cnn(C)c4)ccc23)c(-c2ccccc2)nn1C | pEGFR (Tyr1068) in PC-9 cells (Ex19Del) (Homo sapiens (Human), UniProt P00533, DEL746-750) | IC50 | 69.1
COc1cc2ncnc(-c3cn(C)nc3-c3ccc(F)cc3)c2nc1NC(=O)[C@]12CN(C)C[C@H]1C2(F)F (single isomer, unassigned) | pEGFR (Tyr1068) in PC-9 cells (Ex19Del) (Homo sapiens (Human), UniProt P00533, DEL746-750) | IC50 | 0.8

(a) COc1cc2ncnc(-c3cn(C)nc3-c3ccccc3)c2cc1NC(=O)[C@@]12COC[C@@H]1C2 (single isomer, unassigned)
(b) COc1cc2ncnc(-c3cn(C)nc3-c3ccccc3)c2cc1NC(=O)C[C@H]1CCCO1
Which shows the larger IC50 value: a or b ? Give the label under which the chosen entry appears.
a
(a: 6.1 nM, b: 2.5 nM)

----------
# target_system: EGFR L858R (Homo sapiens (Human), UniProt P00533, L858R)
# test_description: Biochemical EGFR inhibition assay, EGFR L858R
# condition_label: Caliper mobility shift; 1.0 mM ATP or ATP Km; read-out: Enz EGFR_L858R IC50
property_label: IC50 (nM)

molecule | target_system | unit_string | recorded_measurement
C[C@H](O)c1cc2c(-c3cn(CC(F)F)nc3-c3ccccc3)ncnc2cc1-c1cnn(C)c1 (single isomer, unassigned) | EGFR L858R (Homo sapiens (Human), UniProt P00533, L858R) | nM | 0.9
CCC(=O)Nc1cc2c(-c3cn(C4COC4)nc3-c3ccccc3)ncnc2cc1OC | EGFR L858R (Homo sapiens (Human), UniProt P00533, L858R) | nM | 2.2
COc1cc2ncnc(-c3cn(C)nc3-c3ccccc3F)c2cc1OC(=O)N1CCOC[C@@H]1C | EGFR L858R (Homo sapiens (Human), UniProt P00533, L858R) | nM | 829
COc1cc2ncnc(-c3cn(C)nc3-c3ccccc3)c2nc1O[C@@H](C)c1ncsc1C (single isomer, unassigned) | EGFR L858R (Homo sapiens (Human), UniProt P00533, L858R) | nM | 10.6
COc1cc2ncnc(-c3cn(C)nc3-c3ccccc3)c2cc1NC(=O)c1cnccc1F | EGFR L858R (Homo sapiens (Human), UniProt P00533, L858R) | nM | 1.2

(1) COc1cc2ncnc(-c3cn(C)nc3-c3ccccc3)c2nc1O[C@@H](C)c1cn(C)nn1
(2) CCn1cc(-c2ncnc3cc(OC)c(NC(=O)C45CC(N(C)C)(C4)C5)nc23)c(-c2ccc(F)cc2)n1
Lab note: check whether 1 or 2 shows the higher recorded IC50. Respond with the label that goes with your answer.
1
(1: 3.9 nM, 2: 2 nM)

(1) COc1cc2ncnc(-c3cn(C)nc3-c3ccccc3)c2cc1NC(=O)C(C)N(C)C (stereo not drawn)
(2) CCn1cc(-c2ncnc3cc(OC)c(NC(=O)c4cnn(C(F)(F)F)c4)cc23)c(-c2ccccc2)n1
Which has the higher IC50, 1 or 2 ? # reply format: chosen label
1

(A) COc1cc2ncnc(-c3cn(C)nc3-c3ccccc3)c2cc1NC(=O)[C@H]1C[C@@H]1C(F)(F)F
(B) COc1cc2ncnc(-c3cn(C)nc3-c3ccccc3)c2cc1NC(=O)c1ccnn1C(C)C
(C) CCC(=O)Nc1cc2c(-c3cn(CC(F)F)nc3-c3ccccc3)ncnc2cc1OC
# rank by IC50, ascending (min first) Rank them, then answer with their labels in that order.
C, B, A

(1) COc1cc2ncnc(-c3cn(C)nc3-c3ccccc3)c2cc1NC(=O)c1scnc1C
(2) COc1cc2ncnc(-c3cnn(CC(F)F)c3-c3ccc(F)cc3)c2cc1C1(O)CC1
Which numeric IC50 is bigger, that of 1 or that of 2 ? Could you answer with the label of the item you picked?
2

----------
# target_system: EGFR (d746-750) (Homo sapiens (Human), UniProt P00533, DEL746-750)
# Sequence (P00533 other isoform, or with tags, fused parts or gaps del 1-694/del 746-750 limits assumed): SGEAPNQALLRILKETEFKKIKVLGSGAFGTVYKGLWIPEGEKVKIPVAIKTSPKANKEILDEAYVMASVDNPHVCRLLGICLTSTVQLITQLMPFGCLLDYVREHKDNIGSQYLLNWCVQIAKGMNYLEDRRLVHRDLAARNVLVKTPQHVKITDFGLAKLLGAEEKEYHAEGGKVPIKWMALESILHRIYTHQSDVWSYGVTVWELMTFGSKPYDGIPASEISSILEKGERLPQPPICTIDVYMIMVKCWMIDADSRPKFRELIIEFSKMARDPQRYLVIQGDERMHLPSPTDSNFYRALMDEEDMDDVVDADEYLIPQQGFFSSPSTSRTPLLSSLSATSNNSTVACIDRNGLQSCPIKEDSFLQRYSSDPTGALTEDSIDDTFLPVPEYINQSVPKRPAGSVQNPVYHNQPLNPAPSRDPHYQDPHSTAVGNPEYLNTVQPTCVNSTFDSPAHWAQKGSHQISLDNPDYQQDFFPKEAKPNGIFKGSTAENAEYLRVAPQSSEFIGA
# test_description: Biochemical EGFR inhibition assay, EGFR (d746-750)
# condition_label: Caliper mobility shift; 1.0 mM ATP or ATP Km; read-out: Enz EGFR_Exon19-del746-750 IC50
property_label: IC50 (nM)

compound | unit_string | IC50
Cc1n[nH]c(-c2ccccc2)c1-c1ncnc2cc(-c3cnn(C)c3)ccc12 | nM | 2.1
C[C@@H](O)c1cc2c(-c3cn(CC(F)F)nc3-c3ccccc3)ncnc2cc1O[C@H]1CCOC1 (single isomer, unassigned) | nM | 2.4
COc1cc2ncnc(-c3cn(C)nc3-c3ccccc3)c2cc1N1CC[C@H](F)[C@@H](O)C1 (single isomer, unassigned) | nM | 2.2

(a) COc1cc2ncnc(-c3cn(C)nc3-c3ccccc3)c2cc1C(C)O (stereo not shown)
(b) CCn1cc(-c2ncnc3cc(OC)c([C@H](C)O)cc23)c(-c2ccccc2)n1 (single isomer, unassigned)
// compare: a vs b , metric IC50, want the smaller Choose, then provide that item's label.
b

(P) CCn1cc(-c2ncnc3cc(OC)c(NC(=O)[C@]45COC[C@H]4C5)cc23)c(-c2ccccc2F)n1 (mixture of isomers)
(Q) CCOc1cc2ncnc(-c3cn(C4CC4)nc3-c3ccccc3)c2cc1[C@H](C)O (single isomer, unassigned)
Of P versus Q , which is the one with smaller reported IC50? Could you answer with the label of the item you picked?
P

Measured values drawn from patent US20250236608A1 for this set.
